# Albumin values compiled below
Conditions: mouse, in vivo, sc, 50 mg/kg
e = 2'-O-(2-methoxyethyl) (MOE); d = 2'-deoxy (DNA)
Just the number, please, no unit attached.

ISIS 445505: 5-8-5 or 6-8-6 MOE microwalk gapmer (Table 44) (antisense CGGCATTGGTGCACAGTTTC; sugars from the 5' end e6 d8 e6, backbone and methylation of C not given here) = 3.2
ISIS 445509: 5-8-5 or 6-8-6 MOE microwalk gapmer (Table 44) (antisense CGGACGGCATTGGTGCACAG; sugars from the 5' end e6 d8 e6, backbone and methylation of C not given here) = 3.1
ISIS 445532: 5-8-5 or 6-8-6 MOE microwalk gapmer (Table 44) (antisense CGGCATTGGTGCACAGTT; sugars from the 5' end e5 d8 e5, backbone and methylation of C not given here) = 2.9

Record ISIS 445503: 5-8-5 or 6-8-6 MOE microwalk gapmer (Table 44) (antisense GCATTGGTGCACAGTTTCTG; sugars from the 5' end e6 d8 e6, backbone and methylation of C not given here) . Reported Albumin: 3.4

Record ISIS 445504: 5-8-5 or 6-8-6 MOE microwalk gapmer (Table 44) (antisense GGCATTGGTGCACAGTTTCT; sugars from the 5' end e6 d8 e6, backbone and methylation of C not given here) . Reported Albumin: 3.4

Record ISIS 445513: 5-8-5 or 6-8-6 MOE microwalk gapmer (Table 44) (antisense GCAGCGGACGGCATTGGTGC; sugars from the 5' end e6 d8 e6, backbone and methylation of C not given here) . Reported Albumin: 3.1

====

Test: Hematology assays in cynomolgus monkeys (Example 45)
Format: in vivo
Details: day 36
Short version: lymphocytes at least 40% is class 1, less is class 0.

ISIS 417002: MOE gapmer, nucleobases 1275 to 1318 of SEQ ID NO: 1 (Table 8) (antisense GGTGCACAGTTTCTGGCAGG; MOE gapmer, wing and gap sizes not given here) = class 0
ISIS 416838: MOE gapmer, nucleobases 1018 to 1042 of SEQ ID NO: 1 (Table 6) (antisense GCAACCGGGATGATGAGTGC; MOE gapmer, wing and gap sizes not given here) = class 1
ISIS 416858: MOE gapmer, nucleobases 1275 to 1318 of SEQ ID NO: 1 (Table 8) (antisense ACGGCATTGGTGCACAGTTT; MOE gapmer, wing and gap sizes not given here) = class 1

Okay, next one:
Input: lymphocytes >= 40% for ISIS 416864: MOE gapmer, nucleobases 1275 to 1318 of SEQ ID NO: 1 (Table 8) (antisense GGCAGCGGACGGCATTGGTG; MOE gapmer, wing and gap sizes not given here) ?
Output: class 0

====

# AST values compiled below
Test: Tolerability in CD1 mice: liver function (Example 43)
Format: in vivo
Settings: 50 mg/kg s.c. twice per week for 6 weeks, plasma
Strand notation (5' to 3'): a small letter for the sugar, then the base; units joined by * are phosphorothioate-linked, units joined directly phosphodiester-linked; [ ] holds rarer units or linkages, { } end groups; capitals alone tell only the bases. e = 2'-O-(2-methoxyethyl) (MOE); [5mC] = 5-methylcytosine; d = 2'-deoxy (DNA)
Report as: number unit

// solved cases for AST follow
ISIS 449708: 3-8-3, 4-8-4, 2-10-2, 3-10-3 or 4-10-4 MOE microwalk gapmer (Table 46) (antisense eA*e[5mC]*eA*dG*dT*dT*dT*d[5mC]*dT*dG*dG*e[5mC]*eA*eG) = 103 IU/L
ISIS 449710: 3-8-3, 4-8-4, 2-10-2, 3-10-3 or 4-10-4 MOE microwalk gapmer (Table 46) (antisense e[5mC]*eA*e[5mC]*dA*dG*dT*dT*dT*d[5mC]*dT*dG*dG*d[5mC]*eA*eG*eG) = 95 IU/L
ISIS 449711: 3-8-3, 4-8-4, 2-10-2, 3-10-3 or 4-10-4 MOE microwalk gapmer (Table 46) (antisense eA*e[5mC]*dA*dG*dT*dT*dT*d[5mC]*dT*dG*dG*d[5mC]*eA*eG) = 83 IU/L
ISIS 449707: 3-8-3, 4-8-4, 2-10-2, 3-10-3 or 4-10-4 MOE microwalk gapmer (Table 46) (antisense e[5mC]*eA*e[5mC]*eA*dG*dT*dT*dT*d[5mC]*dT*dG*dG*e[5mC]*eA*eG*eG) = 62 IU/L

Turning to the following substance.
Record ISIS 449709: 3-8-3, 4-8-4, 2-10-2, 3-10-3 or 4-10-4 MOE microwalk gapmer (Table 46) (antisense eG*e[5mC]*eA*e[5mC]*dA*dG*dT*dT*dT*d[5mC]*dT*dG*dG*d[5mC]*eA*eG*eG*e[5mC]) . Reported AST: 83 IU/L

====

Assay: Hematology assays in cynomolgus monkeys (Example 45)
Format: in vivo
Conditions: day 43
Short version: platelet count at least 400000 µL⁻¹ is 1.0, less is 0.0.

Take a look at these entries with their results.
ISIS 416850: MOE gapmer, nucleobases 1275 to 1318 of SEQ ID NO: 1 (Table 8) (antisense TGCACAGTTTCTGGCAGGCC; MOE gapmer, wing and gap sizes not given here) = 1.0
ISIS 416858: MOE gapmer, nucleobases 1275 to 1318 of SEQ ID NO: 1 (Table 8) (antisense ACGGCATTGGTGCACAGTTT; MOE gapmer, wing and gap sizes not given here) = 0.0
ISIS 416864: MOE gapmer, nucleobases 1275 to 1318 of SEQ ID NO: 1 (Table 8) (antisense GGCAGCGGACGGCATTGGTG; MOE gapmer, wing and gap sizes not given here) = 0.0

Okay, next one:
Input: platelet count >= 400000 µL⁻¹ for ISIS 416838: MOE gapmer, nucleobases 1018 to 1042 of SEQ ID NO: 1 (Table 6) (antisense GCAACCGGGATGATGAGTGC; MOE gapmer, wing and gap sizes not given here) ?
Output: 0.0

====

Assay: Hematology assays in cynomolgus monkeys (Example 45)
Assay type: in vivo
Conditions: day 29; escalating dose regimen
measured-parameter: MCHC

ISIS 416858: MOE gapmer, nucleobases 1275 to 1318 of SEQ ID NO: 1 (Table 8) (antisense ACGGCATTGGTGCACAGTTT; MOE gapmer, wing and gap sizes not given here) = 30 g/dL
ISIS 416864: MOE gapmer, nucleobases 1275 to 1318 of SEQ ID NO: 1 (Table 8) (antisense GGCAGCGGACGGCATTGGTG; MOE gapmer, wing and gap sizes not given here) = 29 g/dL
ISIS 416850: MOE gapmer, nucleobases 1275 to 1318 of SEQ ID NO: 1 (Table 8) (antisense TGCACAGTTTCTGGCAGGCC; MOE gapmer, wing and gap sizes not given here) = 28 g/dL

Record ISIS 417002: MOE gapmer, nucleobases 1275 to 1318 of SEQ ID NO: 1 (Table 8) (antisense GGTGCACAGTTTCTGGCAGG; MOE gapmer, wing and gap sizes not given here) . Reported MCHC: 29 g/dL

Record ISIS 416838: MOE gapmer, nucleobases 1018 to 1042 of SEQ ID NO: 1 (Table 6) (antisense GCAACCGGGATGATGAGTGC; MOE gapmer, wing and gap sizes not given here) . Reported MCHC: 29 g/dL

====

# IC50 values compiled below
System: human Factor 11 mRNA
Test: Dose-dependent antisense inhibition of human Factor 11 in HepG2 cells, lipofectin 9.375-150 nM (Example 2)
Assay type: cell-based
Conditions: ~16 h
Strand notation (5' to 3'): a small letter for the sugar, then the base; units joined by * are phosphorothioate-linked, units joined directly phosphodiester-linked; [ ] holds rarer units or linkages, { } end groups; capitals alone tell only the bases. e = 2'-O-(2-methoxyethyl) (MOE); [5mC] = 5-methylcytosine; d = 2'-deoxy (DNA)
The response must be a number in nM with no trailing unit.

// solved cases for IC50 follow
413468 (antisense eG*eT*e[5mC]*eT*eA*dG*dG*dT*d[5mC]*d[5mC]*dA*d[5mC]*dA*dT*dA*eA*eA*eT*eG*eT) [compound 413468] = 35
412224 (antisense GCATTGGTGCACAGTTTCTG; 5-10-5 MOE gapmer, further chemistry not given here) [compound 412224] = 28
413481 (antisense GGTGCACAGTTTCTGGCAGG; 5-10-5 MOE gapmer, further chemistry not given here) [compound 413481] = 32
412212 (antisense e[5mC]*e[5mC]*eG*eG*eG*dA*dT*dG*dA*dT*dG*dA*dG*dT*dG*e[5mC]*eA*eG*eA*eT) [compound 412212] = 25
412206 (antisense e[5mC]*e[5mC]*eG*eT*eG*d[5mC]*dA*dT*d[5mC]*dT*dT*dT*d[5mC]*dT*dT*eG*eG*e[5mC]*eA*eT) [compound 412206] = 22

Turning to the following substance.
Field IC50 (human Factor 11 mRNA), entry 413469 (antisense eT*eG*e[5mC]*e[5mC]*e[5mC]*dT*dT*d[5mC]*dA*dT*dG*dT*d[5mC]*dT*dA*eG*eG*eT*e[5mC]*e[5mC]) [compound 413469] : 33
